molecular target: HLA-B*58:01; assay: IEDB peptide-MHC binding, purified MHC/competitive/fluorescence; filed as Kd, often an IC50 or EC50 that approximates it; bounds were set here for any values at or beyond the usual limits of such assays; details: source organism: Human herpesvirus 4 strain B95-8
pKd: −log10 of the molar value.

{"sequence content": "VSFIEFVGW", "study target": "HLA-B*58:01", "pKd": 8.96}

###

target: HLA-B*44:02; assay: IEDB peptide-MHC binding, purified MHC/competitive/radioactivity; filed as Kd, often an IC50 or EC50 that approximates it; bounds were set here for any values at or beyond the usual limits of such assays; conditions: source organism: SARS coronavirus Tor2

{"sequence content": "LEQWNLVIGF", "comparison sign": "=", "Kd, nM": 16.1}
{"sequence content": "GDRWFLNRFT", "comparison sign": "≥", "Kd, nM": 70200}
{"sequence content": "RERVNINIV", "comparison sign": "≥", "Kd, nM": 35400}
{"sequence content": "QESLTTTSTA", "comparison sign": "=", "Kd, nM": 7110}
{"sequence content": "QEIQLLAAVG", "comparison sign": "=", "Kd, nM": 883}
{"sequence content": "NECAQVLSEM", "comparison sign": "=", "Kd, nM": 253}
{"sequence content": "QEAYYRARA", "comparison sign": "=", "Kd, nM": 6160}
{"sequence content": "ADYSVLYNST", "comparison sign": "=", "Kd, nM": 1970}
{"sequence content": "KETSYTTTI", "comparison sign": "=", "Kd, nM": 90.8}
{"sequence content": "VESSSKLWA", "comparison sign": "=", "Kd, nM": 3340}

###

biological target: HLA-A*11:01; experiment: IEDB peptide-MHC binding, purified MHC/direct/fluorescence; filed as Kd, often an IC50 or EC50 that approximates it; bounds were set here for any values at or beyond the usual limits of such assays; conditions: source organism: Coxiella burnetii
observable: Kd

{"sequence content": "ILCGWHLLK", "observable": "Kd", "observed value": "3.8 nM"}

###

target: HLA-A*03:01; test: IEDB peptide-MHC binding, purified MHC/competitive/fluorescence; bounds were set here for any values at or beyond the usual limits of such assays; conditions: source organism: Vaccinia virus WR
pIC50: −log10 of the molar value.
observable: pIC50

{"sequence content": "ITCKAFGLY", "study target": "HLA-A*03:01", "observed value": 4.81}

###

target: HLA-A*11:01; assay: IEDB peptide-MHC binding, purified MHC/direct/fluorescence; filed as Kd, often an IC50 or EC50 that approximates it; bounds were set here for any values at or beyond the usual limits of such assays; settings: source organism: Listeria monocytogenes

{"sequence content": "LLARFGLEK", "units": "nM", "Kd": 10.3}

###

target: HLA-A*02:02; experiment: IEDB peptide-MHC binding, purified MHC/competitive/radioactivity; filed as Kd, often an IC50 or EC50 that approximates it; bounds were set here for any values at or beyond the usual limits of such assays; conditions: source organism: Vaccinia virus WR

{"sequence content": "IVPEFAKQYV", "study target": "HLA-A*02:02", "Kd": "10.3 nM"}
{"sequence content": "STFNMWREIL", "study target": "HLA-A*02:02", "Kd": "3120 nM"}
{"sequence content": "QIFEVYWYL", "study target": "HLA-A*02:02", "Kd": "1.12 nM"}
{"sequence content": "TVLGLGLSLK", "study target": "HLA-A*02:02", "Kd": "≥ 61300 nM"}
{"sequence content": "IMAFILGII", "study target": "HLA-A*02:02", "Kd": "17 nM"}
{"sequence content": "STTENAAYQV", "study target": "HLA-A*02:02", "Kd": "928 nM"}
{"sequence content": "ILSLETVKM", "study target": "HLA-A*02:02", "Kd": "4.77 nM"}
{"sequence content": "TLLGLILFVL", "study target": "HLA-A*02:02", "Kd": "169 nM"}
{"sequence content": "DVSLSAYII", "study target": "HLA-A*02:02", "Kd": "691 nM"}
{"sequence content": "EIVSHLRAST", "study target": "HLA-A*02:02", "Kd": "5150 nM"}
{"sequence content": "MAAAKTPVI", "study target": "HLA-A*02:02", "Kd": "259 nM"}
{"sequence content": "ELSRLRYNL", "study target": "HLA-A*02:02", "Kd": "0.93 nM"}
{"sequence content": "ALAEHISDSI", "study target": "HLA-A*02:02", "Kd": "0.198 nM"}
{"sequence content": "RINLLVQYGA", "study target": "HLA-A*02:02", "Kd": "10300 nM"}
{"sequence content": "DVEKEKFVAT", "study target": "HLA-A*02:02", "Kd": "≥ 37500 nM"}
{"sequence content": "MVTDKTAYI", "study target": "HLA-A*02:02", "Kd": "16.8 nM"}
{"sequence content": "DAKRNSKSL", "study target": "HLA-A*02:02", "Kd": "13700 nM"}
{"sequence content": "IAMLKSKNI", "study target": "HLA-A*02:02", "Kd": "≥ 37700 nM"}
{"sequence content": "MTSTRTIILV", "study target": "HLA-A*02:02", "Kd": "1980 nM"}
{"sequence content": "DAMIHKTYI", "study target": "HLA-A*02:02", "Kd": "5420 nM"}
{"sequence content": "NLERETGLSA", "study target": "HLA-A*02:02", "Kd": "17600 nM"}
{"sequence content": "IAVSVYGAIT", "study target": "HLA-A*02:02", "Kd": "7890 nM"}
{"sequence content": "ELTSNCTRTT", "study target": "HLA-A*02:02", "Kd": "14600 nM"}
{"sequence content": "CIVAAVIIM", "study target": "HLA-A*02:02", "Kd": "14300 nM"}
{"sequence content": "KLYGYASLT", "study target": "HLA-A*02:02", "Kd": "75.8 nM"}
{"sequence content": "GLILFVLAL", "study target": "HLA-A*02:02", "Kd": "129 nM"}
{"sequence content": "FVLALYSPPL", "study target": "HLA-A*02:02", "Kd": "2.19 nM"}
{"sequence content": "KLFKRERDAI", "study target": "HLA-A*02:02", "Kd": "92.5 nM"}
{"sequence content": "CAVNTPVSM", "study target": "HLA-A*02:02", "Kd": "6270 nM"}
{"sequence content": "LTHFNNNENV", "study target": "HLA-A*02:02", "Kd": "907 nM"}
{"sequence content": "RQVSVKLLI", "study target": "HLA-A*02:02", "Kd": "17900 nM"}
{"sequence content": "NVTGFMEEEI", "study target": "HLA-A*02:02", "Kd": "10300 nM"}
{"sequence content": "ELWARISSSL", "study target": "HLA-A*02:02", "Kd": "175 nM"}
{"sequence content": "EMKYALINLV", "study target": "HLA-A*02:02", "Kd": "1260 nM"}
{"sequence content": "AAITLVVISV", "study target": "HLA-A*02:02", "Kd": "501 nM"}
{"sequence content": "RLLIWAYLSK", "study target": "HLA-A*02:02", "Kd": "≥ 42300 nM"}
{"sequence content": "LAISAVYFKA", "study target": "HLA-A*02:02", "Kd": "1430 nM"}
{"sequence content": "SLVSKHWEL", "study target": "HLA-A*02:02", "Kd": "1.16 nM"}
{"sequence content": "SLETVKMGA", "study target": "HLA-A*02:02", "Kd": "11200 nM"}
{"sequence content": "CAVIPFDDI", "study target": "HLA-A*02:02", "Kd": "15800 nM"}
{"sequence content": "SIYIAVANCV", "study target": "HLA-A*02:02", "Kd": "534 nM"}
{"sequence content": "NASKTINAL", "study target": "HLA-A*02:02", "Kd": "117 nM"}
{"sequence content": "CTNDIYCDEI", "study target": "HLA-A*02:02", "Kd": "2460 nM"}
{"sequence content": "VLPFDIKYI", "study target": "HLA-A*02:02", "Kd": "135 nM"}
{"sequence content": "NISFKSINKV", "study target": "HLA-A*02:02", "Kd": "≥ 20300 nM"}
{"sequence content": "FIPIIYSKA", "study target": "HLA-A*02:02", "Kd": "0.555 nM"}
{"sequence content": "QTGINNVQSL", "study target": "HLA-A*02:02", "Kd": "≥ 20200 nM"}
{"sequence content": "LQDIVNEHDI", "study target": "HLA-A*02:02", "Kd": "7630 nM"}
{"sequence content": "DTIAHINTL", "study target": "HLA-A*02:02", "Kd": "747 nM"}
{"sequence content": "IVNCLSLSNL", "study target": "HLA-A*02:02", "Kd": "338 nM"}
{"sequence content": "VIRHVDGKIL", "study target": "HLA-A*02:02", "Kd": "≥ 70000 nM"}
{"sequence content": "NVISKIYTL", "study target": "HLA-A*02:02", "Kd": "147 nM"}
{"sequence content": "ALKAYFTAKI", "study target": "HLA-A*02:02", "Kd": "194 nM"}
{"sequence content": "LQWDDNIPEL", "study target": "HLA-A*02:02", "Kd": "180 nM"}
